Sourced from PubChem BioAssay (Tox21)

Assay: qHTS assay to identify small molecule antagonists of the estrogen related receptor (ERR) signaling pathway from Tox21 library (AID 1224848); also: % is scaled to controls: 0 for no effect and ±100 for the full control effect; nearly all actives have a fitted effect of over 50% in size
Conditions: ERR reporter cell line, luciferase antagonist mode, 18 h; series mostly up to 92.4 µM
Records with an inconclusive call do not appear. Active and inactive are the calls of the source. Calls follow the shape of the dose curve; as a rule, active = well fitted inhibition curve with a large enough effect in the repeat runs; inconclusive = weak or mixed curves; inactive = no such curve, though single readings can be large or run the other way.
quantity kind: activity, negative = inhibition

> print(dat)
                                    molecule                            value
 1  COC(=O)C1CC(=O)C(C(=O)OC)CC1=O (configuration not stated)  -0.445% [at 8.39 µM] (inactive)
 2  COc1ccc(C2CNC(=O)C2)cc1OC1CCCC1 (configuration not stated)                         inactive
 3             CC(=O)N[C@@H](CCC(=O)O)C(=O)O                         inactive
 4  CC(=C(CCOC(=O)C(C)C)SSC(CCOC(=O)C(C)C)=C(C)N(C=O)Cc1cnc(C)nc1N)N(C=O)Cc1cnc(C)nc1N                         inactive
 5    C=C(C)C(=O)OCCOP(=O)(O)OCCOC(=O)C(=C)C                         inactive
 6            Nc1ccc2cc(S(=O)(=O)O)cc(O)c2c1                         inactive
 7         C=C(C)C(=O)OCC(C)(C)COC(=O)C(=C)C                         inactive
 8              CC(C)(C)c1n[nH]c(=S)n(N)c1=O                         inactive
 9                 O=S(=O)(O)CCN1CCN(CCO)CC1                         inactive
10                Nc1ccc([N+](=O)[O-])c(N)c1                         inactive
11                         CC(=O)c1sc(C)nc1C                         inactive
12  CCNC(=O)C1CC(C)CCC1C(C)C (configuration not stated)                         inactive
13                               CN(C)CCOCCO                         inactive
14                            CCCCCOC(=O)CCC                         inactive
15    CC(C)CCCCOC(=O)c1ccccc1C(=O)OCCCCC(C)C                         inactive
16  CCCCC(CC)COCCO (configuration not stated)                         inactive
17  Cc1nc2n(c(=O)c1CCN1CCC(c3noc4cc(F)ccc34)CC1)CCC[C@H]2O       3.9% [at 19 µM] (inactive)
18                              C[Si](C)(C)C                         inactive
19     C=C1CC/C=C(\C)CC[C@@H]2[C@@H]1CC2(C)C                         inactive
20                        CN(C)c1ccc(C=O)cc1                         inactive
21    OCCCCC(O)CO (configuration not stated)                         inactive
22    CC(C)(C)c1cc(CCC(=O)NN)cc(C(C)(C)C)c1O                         inactive
23                     CC/C=C\CC1=C(C)CCC1=O                         inactive
24  COP(=O)(OC)OC(c1ccc(Cl)cc1)P(=O)(OC)OC (configuration not stated)                         inactive
25           COc1nccnc1NS(=O)(=O)c1ccc(N)cc1                         inactive
26  Cc1cccc(C)c1OCC(C)N (configuration not stated)                         inactive
27               Cc1c(I)c(=O)n(-c2ccccc2)n1C                         inactive
28            O=C(OCc1ccccc1)C(=O)OCc1ccccc1                         inactive
29                                C[Si](C)=O    1.05% [at 8.39 µM] (inactive)
30  CC(CC=O)CCCC(C)(C)O (configuration not stated)                         inactive
31                   Cc1ccsc1/C=C/C1=NCCCN1C                         inactive
32                    Cc1ccc2c(c1)OCC(=O)CO2                         inactive
33                        CCCCOC(=O)c1ccccc1                         inactive
34  CC(C)CC(C)CC(C)CC(C)COC(=O)c1ccccc1C(=O)OCC(C)CC(C)CC(C)CC(C)C (configuration not stated)                         inactive
35    COc1ccc2nc(SCc3ncc(C)c(OC)c3C)[nH]c2c1                         inactive
36  O=C1c2cccc3c2[C@H](CCC3)CN1[C@@H]1CN2CCC1CC2                         inactive
37                 O=C(O)c1cc(Br)c(O)c(Br)c1                         inactive
38              O=C(NCCN1CCOCC1)c1ccc(Cl)cc1                         inactive
39       CCn1ccc(NS(=O)(=O)c2ccc(N)cc2)nc1=O                         inactive
40                               CCCCCCCCCCl                         inactive
41                     CCCC/C=C\CCCCCCCCCC=O                         inactive
42                              CC(C)CC(=O)O                         inactive
43  CNC(=O)[C@H]1O[C@@H](n2cnc3c(NCc4cc(Cl)ccc4OCc4cc(C)no4)ncnc32)[C@H](O)[C@@H]1N                         inactive
44                    CC(C)=CCOC(=O)c1ccccc1                         inactive
45  COC(=O)CCc1ccc(OCC(O)CNC(C)C)cc1 (configuration not stated)                         inactive
46           COc1cc(C(=S)N2CCOCC2)cc(OC)c1OC                         inactive
47       CC(=O)CCCCn1c(=O)c2c(ncn2C)n(C)c1=O                         inactive
48           O=C(c1ccc(O)cc1)c1ccc(O)c(O)c1O                         inactive
49                            CCCCCCCCCCCCCC                         inactive
50                                    ClCCCl                         inactive
51         Nc1ccc(S(=O)(=O)Nc2ccc(Cl)nn2)cc1                         inactive
52  COc1ccc2c(c1OC)C(=O)O[C@@H]2[C@H]1c2c(cc3c(c2OC)OCO3)CCN1C                         inactive
53  CC(COC(C)(C)C)OCCCO (configuration not stated)                         inactive
54                                 BrCCCCCBr                         inactive
55  CC1COc2ccccc2N1 (configuration not stated)                         inactive
56                        Cc1cc(Cl)c(C)cc1Cl                         inactive
57                              Cc1ccccc1N=O                         inactive
